Data credit: ChEMBL document CHEMBL4732036

biological target: Gamma-secretase; test: Modulatory activity of gamma secretase in human H4 cells overexpressing human APP695 K595N/M596L mutant assessed as decrease in amyloidbeta42 levels at 24 hrs by Alphalisa method
REPORTED_ENDPOINT: IC50 (nM)
Give bare numbers, in nM.

// worked examples, IC50 included
# COMPOUND, OBSERVED
data = [
    ("Cc1nnc(C23CCC(Nc4nc5n(n4)CCCN5c4cccc(Cl)c4)(CC2)CC3)o1", 114),
    ("Cc1nnc(N2CC3CCC(C2)C3Nc2nc3n(n2)CCCN3c2ccc(OC(F)(F)F)cc2)o1 (centres undefined)", 46),
    ("Cc1cc(C23CC(Nc4nc5n(n4)CCCC[C@H]5c4ccc(F)c(F)c4F)(C2)C3)ncn1", 11),
    ("Cc1nnc(-c2ccc(Nc3nc(Cc4ccc(Cl)cc4)cc(C(C)(C)O)n3)cc2)o1", 478),
    ("Cc1nnc(N2CC3CCC(C2)C3Nc2nc3n(n2)CCCN3c2cccc(Cl)c2)o1 (centres undefined)", 34),
    ("Cc1nnc(N2CC3CCC(C2)C3Nc2nc(Cc3ccc(Cl)cc3)cc(C(C)(C)O)n2)o1 (centres undefined)", 38),
]

Hello, I would appreciate it if you could give IC50 for each entry below.
1. Cc1nnc(C23CCC(Nc4nc(Cc5ccc(Cl)cc5)cc(C(C)(C)O)n4)(CC2)CC3)o1
2. Cc1nnc(N2CC3CCC(C2)C3Nc2nc(Oc3cccc(Cl)c3)n(C(C)C)n2)o1 (centres undefined)
3. Cc1nnc(-c2ccc(Nc3nc(Oc4cccc(Cl)c4)n(C(C)C)n3)cc2)o1

146
42
510
